Measured pIC50 of individual entries
# subject of test: HLA-A2.1 (heavy chain with human beta 2-microglobulin) (human)
# protocol details: competition with radiolabeled HBc18-27 for soluble HLA-A2.1 + b2m, gel filtration
Formally, pIC50 is defined as -log10 of the concentration c, with c in mol/L.

Here are 2 binders together with their reported answers.
LLDGTATLRL (modifications not checked) [gp100 peptide G10-4] : 6.32
YMNGTMSQV (modifications not checked) [tyrosinase peptide T9369] : 7.40

Continue with the binder presented below.
Identify measured pIC50 associated with VLYRYGSFSV (modifications not checked) [gp100 peptide G10-5] 7.89

Origin of measurements: patent US7612044
